- tgt: c-Src SH2
- procedure.summary: SH2 binding enrichment of the phosphorylated peptide, bacterial display (enrichment ratio); higher = better substrate or ligand; peptides without Tyr show the background;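 further: peptide library displayed on the E. coli surface as eCPX fusions, selected cells deep-sequenced, score is each peptide's frequency after selection divided by its frequency in the input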
measure.name: SH2 binding enrichment

Below are worked cases with known answers.
>>> df
                 residue_sequence  measured_result
0         QLLIKYPPEEV [ZZZ3_Y670]            0.626
1       NGVSYYINLCQ [IGF2R_Y2025]            0.466
2        GMIQAYSSSQR [DES_Y5_S2I]            0.759
3        SRGLAYPARPA [LEMD2_Y122]            0.413
4    RAFRRYLLKQK [SCN2A_Y1919_YF]            0.454
5  IDDLEYLHSQG [STK11_Y166_G163D]            0.471

[a] CENNRYGMGTS [PDHA1_Y227]
[b] TQTPPYVKKHP [LARP1B_Y457]
Incoming: // returns a or b , whichever has the lower SH2 binding enrichment Provide the label of your selected option as the answer.
Outgoing: a

The measurements presented in this section are drawn from the supplement of paper PMC10065799.
